Data provenance is patent US5700838A.

- test.protocol: in vivo
- condition.context: rat, po

>  <smiles.representation>
CNC(=O)[C@@H](NC(=O)[C@H](CC(C)C)[C@H](O)C(=O)NO)C(C)(C)C

>  <AUC(0-t) at 6 h / ng·h/mL>
343

$$$$

====

- test.protocol: Blood concentration over time after oral gavage in rats, determined as collagenase inhibitory activity of extracts
- condition.context: rat, po
AUC(0-t) at 6 h: recorded values

>  <compound>
CCOC(=O)[C@H](C)NC(=O)[C@H](CC(C)C)NC(=O)[C@@H](CC(=O)NO)CC(C)C [Example C1, reference compound]

>  <AUC(0-t) at 6 h (ng·h/mL)>
91.7

$$$$
>  <compound>
CNC(=O)[C@H](CC1CCCCC1)NC(=O)[C@H](CC(C)C)[C@H](O)C(=O)NO

>  <AUC(0-t) at 6 h (ng·h/mL)>
143

$$$$
>  <compound>
CCOC(=O)CNC(=O)[C@H](CC(C)C)NC(=O)[C@H](CC(C)C)[C@H](CCCCN1C(=O)c2ccccc2C1=O)C(=O)NO

>  <AUC(0-t) at 6 h (ng·h/mL)>
5.3

$$$$

====

Tmax: recorded values
- test.protocol: Blood concentration over time after oral gavage in rats, determined as collagenase inhibitory activity of extracts
- condition.context: rat, po
experimental.readout: Tmax (min)

>  <compound>
CNC(=O)[C@H](CC1CCCCC1)NC(=O)[C@H](CC(C)C)[C@H](O)C(=O)NO [Example 1]

>  <experimental.value>
30

$$$$
>  <compound>
CCOC(=O)[C@H](C)NC(=O)[C@H](CC(C)C)NC(=O)[C@@H](CC(=O)NO)CC(C)C [Example C1, reference compound]

>  <experimental.value>
30

$$$$
>  <compound>
CCOC(=O)CNC(=O)[C@H](CC(C)C)NC(=O)[C@H](CC(C)C)[C@H](CCCCN1C(=O)c2ccccc2C1=O)C(=O)NO [Example C2]

>  <experimental.value>
60

$$$$

====

- assay.system: stromelysin (Homo sapiens, UniProt P08254)
- Sequence (P08254 100-477): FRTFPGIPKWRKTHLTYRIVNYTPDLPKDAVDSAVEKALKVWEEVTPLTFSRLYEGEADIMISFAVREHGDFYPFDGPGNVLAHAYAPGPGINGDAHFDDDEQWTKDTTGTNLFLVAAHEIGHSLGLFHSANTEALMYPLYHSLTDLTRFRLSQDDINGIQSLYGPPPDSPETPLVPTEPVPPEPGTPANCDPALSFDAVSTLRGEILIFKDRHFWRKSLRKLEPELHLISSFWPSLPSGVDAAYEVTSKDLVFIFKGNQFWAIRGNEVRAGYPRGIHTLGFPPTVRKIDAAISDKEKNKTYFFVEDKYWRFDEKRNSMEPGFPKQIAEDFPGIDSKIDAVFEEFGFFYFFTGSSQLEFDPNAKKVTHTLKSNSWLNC
- condition.context: read-out: Stromelysin IC50; 37°, 16 hours, pH 7.5

>  <molecule>
CCOC(=O)CNC(=O)[C@H](CC(C)C)NC(=O)[C@H](CC(C)C)[C@H](CCCCN1C(=O)c2ccccc2C1=O)C(=O)NO [Example C2]

>  <assay.system>
stromelysin (Homo sapiens, UniProt P08254)

>  <IC50 / nM>
70

$$$$

====

- test.protocol: Aqueous solubility at ambient temperature
- Assay type: physicochemical
- condition.context: in water
solubility: recorded values

>  <compound>
CNC(=O)[C@H](CC1CCCCC1)NC(=O)[C@H](CC(C)C)[C@H](O)C(=O)NO

>  <units.text>
µg/mL

>  <value.relation.sign>
=

>  <solubility>
100

$$$$
>  <compound>
CCOC(=O)CNC(=O)[C@H](CC(C)C)NC(=O)[C@H](CC(C)C)[C@H](CCCCN1C(=O)c2ccccc2C1=O)C(=O)NO

>  <units.text>
µg/mL

>  <value.relation.sign>
<

>  <solubility>
100

$$$$
>  <compound>
CCOC(=O)[C@H](C)NC(=O)[C@H](CC(C)C)NC(=O)[C@@H](CC(=O)NO)CC(C)C [Example C1, reference compound]

>  <units.text>
µg/mL

>  <value.relation.sign>
=

>  <solubility>
300

$$$$
